TARGET UNDER TEST: Mast/stem cell growth factor receptor Kit (Homo sapiens, UniProt P10721)
Sequence (P10721 whole entry): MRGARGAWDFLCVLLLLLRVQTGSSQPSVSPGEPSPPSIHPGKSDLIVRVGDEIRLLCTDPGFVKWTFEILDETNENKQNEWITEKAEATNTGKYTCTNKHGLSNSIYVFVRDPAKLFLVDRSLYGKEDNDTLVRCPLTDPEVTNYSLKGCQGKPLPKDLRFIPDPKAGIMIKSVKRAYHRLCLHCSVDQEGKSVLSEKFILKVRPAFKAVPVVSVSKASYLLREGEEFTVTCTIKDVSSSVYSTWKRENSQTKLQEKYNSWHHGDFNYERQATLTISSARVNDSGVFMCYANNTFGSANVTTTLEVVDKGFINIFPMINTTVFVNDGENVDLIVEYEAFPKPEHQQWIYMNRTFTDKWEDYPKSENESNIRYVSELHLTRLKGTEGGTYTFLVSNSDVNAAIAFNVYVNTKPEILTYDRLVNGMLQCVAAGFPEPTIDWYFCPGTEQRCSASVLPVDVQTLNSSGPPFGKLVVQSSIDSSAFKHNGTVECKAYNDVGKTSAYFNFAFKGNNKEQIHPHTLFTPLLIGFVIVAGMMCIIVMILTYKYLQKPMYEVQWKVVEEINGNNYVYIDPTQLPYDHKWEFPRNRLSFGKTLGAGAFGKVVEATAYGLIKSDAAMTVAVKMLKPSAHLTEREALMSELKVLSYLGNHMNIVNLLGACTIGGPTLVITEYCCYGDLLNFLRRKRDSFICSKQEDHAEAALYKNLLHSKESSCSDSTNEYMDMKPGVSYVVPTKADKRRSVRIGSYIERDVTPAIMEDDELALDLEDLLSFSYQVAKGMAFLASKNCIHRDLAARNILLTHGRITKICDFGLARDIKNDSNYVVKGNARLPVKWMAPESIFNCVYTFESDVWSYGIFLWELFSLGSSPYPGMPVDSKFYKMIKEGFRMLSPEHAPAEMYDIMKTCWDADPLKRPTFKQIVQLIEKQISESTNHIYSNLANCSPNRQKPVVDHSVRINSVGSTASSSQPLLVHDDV
REPORTED PROPERTY: IC50 (nM)
Kindly answer with a numeric value in nM, unit omitted.

Briefly, IC50 measured for CCN1CCN(CCCOc2cc3nccc(Oc4c(F)cc(NC(=O)NN5C(=O)CSC5c5c(F)cccc5F)cc4F)c3cc2OC)CC1 (stereo unspecified) : 64

* * *

TARGET UNDER TEST: Receptor tyrosine-protein kinase erbB-2 (Homo sapiens, UniProt P04626)
Sequence (P04626 whole entry): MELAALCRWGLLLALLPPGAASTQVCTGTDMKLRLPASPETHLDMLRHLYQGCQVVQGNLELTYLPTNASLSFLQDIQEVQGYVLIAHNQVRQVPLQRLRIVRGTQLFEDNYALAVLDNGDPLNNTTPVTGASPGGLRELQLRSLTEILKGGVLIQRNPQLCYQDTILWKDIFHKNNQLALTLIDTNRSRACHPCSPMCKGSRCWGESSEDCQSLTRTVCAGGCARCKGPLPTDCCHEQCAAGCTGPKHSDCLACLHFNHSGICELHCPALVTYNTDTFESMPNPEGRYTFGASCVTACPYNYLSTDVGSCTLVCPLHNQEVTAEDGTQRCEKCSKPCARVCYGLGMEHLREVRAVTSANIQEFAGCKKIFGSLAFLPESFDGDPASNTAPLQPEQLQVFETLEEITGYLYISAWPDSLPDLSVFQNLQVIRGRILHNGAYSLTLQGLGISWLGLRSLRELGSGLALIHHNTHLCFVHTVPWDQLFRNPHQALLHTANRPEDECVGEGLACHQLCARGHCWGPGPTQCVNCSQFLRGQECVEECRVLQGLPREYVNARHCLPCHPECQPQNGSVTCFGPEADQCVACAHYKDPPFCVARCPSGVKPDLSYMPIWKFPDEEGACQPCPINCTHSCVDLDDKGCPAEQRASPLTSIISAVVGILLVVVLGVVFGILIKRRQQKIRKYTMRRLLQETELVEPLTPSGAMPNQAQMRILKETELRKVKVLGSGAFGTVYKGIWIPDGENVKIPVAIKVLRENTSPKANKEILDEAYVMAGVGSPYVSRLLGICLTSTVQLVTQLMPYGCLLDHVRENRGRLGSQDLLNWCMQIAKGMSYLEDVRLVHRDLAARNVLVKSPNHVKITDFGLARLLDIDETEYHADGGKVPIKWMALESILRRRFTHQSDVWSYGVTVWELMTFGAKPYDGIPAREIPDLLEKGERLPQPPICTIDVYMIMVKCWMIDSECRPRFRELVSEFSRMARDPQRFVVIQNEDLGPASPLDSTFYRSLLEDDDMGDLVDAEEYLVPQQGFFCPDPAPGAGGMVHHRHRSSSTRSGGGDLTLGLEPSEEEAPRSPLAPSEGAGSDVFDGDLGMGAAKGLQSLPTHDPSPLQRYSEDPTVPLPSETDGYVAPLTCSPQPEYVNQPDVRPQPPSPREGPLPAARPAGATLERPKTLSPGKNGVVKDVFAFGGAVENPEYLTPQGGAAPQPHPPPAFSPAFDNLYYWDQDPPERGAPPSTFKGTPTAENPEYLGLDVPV
pIC50: −log10 of the molar value.
REPORTED PROPERTY: pIC50

pIC50 for Receptor tyrosine-protein kinase erbB-2 (Homo sapiens, UniProt P04626) with input CCN1CCN(CCCOc2cc3nccc(Oc4c(F)cc(NC(=O)NN5C(=O)CSC5c5c(F)cccc5F)cc4F)c3cc2OC)CC1 (stereo unspecified) equals < 5.00

All figures here come from ChEMBL document CHEMBL4330059.
